The reported numbers originate from ChEMBL document CHEMBL1148360.

Consider the following compounds; for each one, report its MIC.
- Test system: Enterococcus faecalis
- EXPERIMENT DESCRIPTION: Antibacterial activity against Enterococcus faecalis ATCC 29212
- Type: functional

Tell me the measured MIC of `Clc1cccc(-n2nc(C3CCNCC3)cc2/C=C/c2c[nH]c3ccc(Cl)cc23)c1` , please.
2 µg/mL

Tell me the measured MIC of C[C@@H]1CN(c2c(F)c(N)c3c(=O)c(C(=O)O)cn(C4CC4)c3c2F)C[C@H](C)N1 [SPARFLOXACIN] , please.
0.25 µg/mL

Tell me the measured MIC of `Clc1cccc(-n2nc(C3CCNCC3)cc2-c2ccc3ccccc3c2)c1` , please.
8 µg/mL

Tell me the measured MIC of `c1ccc(COc2ccc(-c3cc(C4CCNCC4)[nH]n3)cc2)cc1` , please.
64 µg/mL

Tell me the measured MIC of CO[C@@H]1[C@@H](OC(N)=O)[C@@H](O)[C@H](Oc2ccc3c(O)c(NC(=O)c4ccc(O)c(CC=C(C)C)c4)c(=O)oc3c2C)OC1(C)C [NOVOBIOCIN] , please.
2 µg/mL

###

- STUDY SYSTEM: DNA gyrase (Escherichia coli, UniProt P0AES4+P0AES6)
- EXPERIMENT DESCRIPTION: Iinhibitory activity against Escherichia coli DNA gyrase
OBSERVATION TYPE: pIC50
Note: pIC50 values are expressed as the negative base-10 logarithm of concentration in M.

Please state recorded pIC50 (tested on DNA gyrase (Escherichia coli, UniProt P0AES4+P0AES6)) of C[C@@H]1CN(c2c(F)c(N)c3c(=O)c(C(=O)O)cn(C4CC4)c3c2F)C[C@H](C)N1 [SPARFLOXACIN]
6.20

Please state recorded pIC50 (tested on DNA gyrase (Escherichia coli, UniProt P0AES4+P0AES6)) of `Clc1cccc(-n2nc(C3CCNCC3)cc2-c2ccc3ccccc3c2)c1`
4.08

###

- EXPERIMENT DESCRIPTION: Antibacterial activity against […] KT2524 (PRSP)
- Assay type: functional
- CONDITIONS: Streptococcus pneumoniae
Consider the following molecules; for each one, report its MIC.
The response must be a number in µg/mL with no trailing unit.

Tell me the measured MIC of `Clc1cccc(-n2nc(C3CCNCC3)cc2/C=C/c2c[nH]c3ccc(Cl)cc23)c1` , please.
2

Tell me the measured MIC of `C[C@@H]1CN(c2c(F)c(N)c3c(=O)c(C(=O)O)cn(C4CC4)c3c2F)C[C@H](C)N1` , please.
4

Tell me the measured MIC of `c1ccc(COc2ccc(-c3cc(C4CCNCC4)[nH]n3)cc2)cc1` , please.
64

Tell me the measured MIC of `Clc1cccc(-n2nc(C3CCNCC3)cc2-c2ccc3ccccc3c2)c1` , please.
8

Tell me the measured MIC of `CO[C@@H]1[C@@H](OC(N)=O)[C@@H](O)[C@H](Oc2ccc3c(O)c(NC(=O)c4ccc(O)c(CC=C(C)C)c4)c(=O)oc3c2C)OC1(C)C` , please.
0.5

###

Consider the following compounds; for each one, report its IC50.
- STUDY SYSTEM: Nucleic Acid
- EXPERIMENT DESCRIPTION: Iinhibitory activity against human DNA topoisomerase II
- Type: functional
The response must be a number in µg/mL with no trailing unit.

Tell me the measured IC50 of `c1ccc(COc2ccc(-c3cc(C4CCNCC4)[nH]n3)cc2)cc1` , please.
200

Tell me the measured IC50 of `Clc1cccc(-n2nc(C3CCNCC3)cc2-c2ccc3ccccc3c2)c1` , please.
50
